Quick reference: pIC50 of the listed items.
# STUDY_TARGET: Thymidylate synthase (Escherichia coli (strain K12))
# Sequence (P0A884 whole entry): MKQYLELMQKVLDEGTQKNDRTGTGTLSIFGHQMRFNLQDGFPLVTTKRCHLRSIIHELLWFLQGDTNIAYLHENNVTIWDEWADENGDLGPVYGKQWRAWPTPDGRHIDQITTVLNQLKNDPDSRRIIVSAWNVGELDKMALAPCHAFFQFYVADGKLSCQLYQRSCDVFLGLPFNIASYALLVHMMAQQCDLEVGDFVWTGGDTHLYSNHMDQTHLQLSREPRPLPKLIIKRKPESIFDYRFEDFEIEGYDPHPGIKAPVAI
# EXPERIMENT_DESCRIPTION: Inhibition Assay
pIC50: −log10 of the molar value.

# MOLECULE, pIC50
records = [
    ("CN(C)c1cccc2c(S(=O)(=O)Oc3ccc(CC(N)C(=O)O)cc3)cccc12 [Dansyl derivatives 1A, (S) isomer]", 2.93),
    ("CN(C)c1cccc2c(S(=O)(=O)NN)cccc12", 2.95),
]

* * *

# STUDY_TARGET: Thymidylate synthase (Lacticaseibacillus casei, UniProt P00469)
# Sequence (P00469 whole entry): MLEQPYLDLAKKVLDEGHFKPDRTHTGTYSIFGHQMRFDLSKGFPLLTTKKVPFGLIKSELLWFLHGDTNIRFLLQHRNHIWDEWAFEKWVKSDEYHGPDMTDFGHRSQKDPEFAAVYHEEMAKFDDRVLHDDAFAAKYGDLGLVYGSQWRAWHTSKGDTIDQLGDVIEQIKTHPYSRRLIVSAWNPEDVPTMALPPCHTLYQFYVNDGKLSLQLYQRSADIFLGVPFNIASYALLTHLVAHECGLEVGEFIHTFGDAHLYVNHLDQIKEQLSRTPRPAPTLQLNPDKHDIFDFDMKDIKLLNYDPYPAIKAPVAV
# EXPERIMENT_DESCRIPTION: Inhibition Assay

# COMPOUND, OPERATOR, IC50 (µM)
data = [
    ("CCCCN(CCCC)c1cccc2c(S(=O)(=O)Oc3ccc(CC(N)C(=O)O)cc3)cccc12 (centres undefined)", "=", 53),
    ("NC(Cc1ccc(OS(=O)(=O)c2ccc3ccccc3c2)cc1)C(=O)O (centres undefined) [2-naphthylsulfonyl]", "=", 4.7),
    ("CN(C)c1cccc2c(S(=O)(=O)NN)cccc12", "=", 458),
    ("CN(C)c1ccc(/N=N\\c2ccc(S(=O)(=O)Oc3ccc(CC(N)C(=O)O)cc3)cc2)cc1 (centres undefined)", ">", 100),
]
